Listing of entries alongside the reported growth.
Tested on: SF-268 CNS
Test: NCI-60 one-dose screen, 48 h (100 = growth as untreated, 0 = no growth, -100 = all killed)
Settings: 10 µM unless noted
Description: Cells are grown in 96 well plates and exposed to the test compound for 48 hours. Compounds are tested at a single concentration, which is 10^-5 M for most compounds. The reported endpoint is percent growth (GI% or GIPRCNT), where numbers from 0 - 100% represent growth inhibition, and numbers from -100% - 0 represent cell death. For example, a value of 40 represents 60% growth inhibition. A value of 0 means no net growth occurred over the course of the experiment. […]
Compounds without any hit were thinned out: in the full panel of roughly 83,000, 20% have a hit.
# output: bare number, implied unit %

>>> df
                         molecule  experimental_target  obs_value
0  CCOc1ccc(/C=N\N2CCCCCC2)cc1OCC           SF-268 CNS        102

molecule CCCCCn1c(=N)n(CC(O)COc2cccc(C)c2)c2ccccc21 (stereo not drawn) , growth observed: 25.6

molecule `COc1ccc2nc(-n3nc(C)cc3C)c(-n3nc(C)cc3C)nc2c1` , growth observed: 119

molecule COC1(OC)C2(Cl)C=C(c3ccccc3)C1(Cl)C(Cl)=C2Cl (stereo not drawn) , growth observed: 101

molecule `O=c1c2cc(F)ccc2oc2c(NCCNCCO)nc3ccccc3c12` , growth observed: 47.5
